Data credit: the supplement of paper PMC9170038

- Tested on: MS2 coat protein
- ASSAY_SUMMARY: apparent KD of MS2 coat protein; designed switch direction (-1 OFF switch, 1 ON switch): 1; higher = weaker reporter binding
- RUN_PARAMETERS: input ligand: FMN 200 uM
REPORTED_METRIC: apparent KD of MS2 coat protein
Write the numeric value and follow it with the unit.

input: Value lookup for apparent KD of MS2 coat protein; key = UGGCUCAGACUAGGAUAUGAUCAUGGCGCUUCGGCGCAUACAUGAGGAUCACCCAUGUAAAGUGAUCAGAAGGAGUCUGAGCCA [SSNG2/7-C2] (Eterna round: R96, puzzle: Same State NG 2)
output: 14.5 nM

input: Value lookup for apparent KD of MS2 coat protein; key = GCUGCAAGGGCAGGAUAUGGGUCCAAAGCGCAAGUGCGCUUUGGUACAUGAGGAUCACCCAUGUCCCAGAAGGGCCCAUGCGGC [Edenbiatar] (Eterna round: R96, puzzle: Same State NG 2)
output: 15.5 nM

input: Value lookup for apparent KD of MS2 coat protein; key = GCUCGAUGAGCGGUUUACAUGAGGAUCACCCAUGUAAAUGGGCAGGAUAUUUACGUGCUUUGUGUAGAGAAGGGCCCAUCGAGC [SameState NG3 #75] (Eterna round: R96, puzzle: Same State NG 3)
output: 18.1 nM

input: Value lookup for apparent KD of MS2 coat protein; key = GGAGCCGGCCUAGGAUAUUUCAUUUAAAAACAUGAGGAUCACCCAUGUAGGCCAGAAGGCCUUGGGAAGAAGGAGGUCGGCUCC [Loop Effect - U24,U25] (Eterna round: R96, puzzle: Same State NG 2)
output: 11.2 nM

input: Value lookup for apparent KD of MS2 coat protein; key = GCCGCGUUUCGCGCCUACAUGAGGAUCACCCAUGUUUGUAGGCAGGAUAUCGUUUGCUUUGCAACCGAGAAGGGCUGUUGUGGC [salish99_SSNG3_R04_013] (Eterna round: R96, puzzle: Same State NG 3)
output: 51.6 nM

###

For each entry below, report its apparent KD of MS2 coat protein value.
- Test system: MS2 coat protein
- ASSAY_SUMMARY: apparent KD of MS2 coat protein; designed switch direction (-1 OFF switch, 1 ON switch): 1; higher = weaker reporter binding
- RUN_PARAMETERS: input ligand: microRNA oligo, concentration not stated
Entry rule: numbers only, all in µM.

input: Value lookup for apparent KD of MS2 coat protein; key = AGAUCAUGACGAGGAUAUCCGACAUGAGGAUCACCCAUGUAUGUCGGAGGACGCGUACGUCCAAUGGAGAAGGCGUCGUGGUCA [JL SSNG2 1.03] (Eterna round: R96, puzzle: Same State NG 2)
output: 0.0737

input: Value lookup for apparent KD of MS2 coat protein; key = UUGAAGAAUAUAGGAUAUUGAAUACAUAUGUUUAACAUGAGGAUCACCCAUGUGGGUUGCGGUAUCGAGAAGGAUAAUUACUAG [Mat - Same State NG 2 - JL mod - D12] (Eterna round: R96, puzzle: Same State NG 2)
output: 0.131

input: Value lookup for apparent KD of MS2 coat protein; key = AUUAAUUAAUUAAUACAUGAGGAUCACCCAUGUAAUAAGAUCUAGGAUAUCAGCUCGAUUAGAGCUGAGAAGGAGAUCACAUGU [SSNG3/17-A2] (Eterna round: R96, puzzle: Same State NG 3)
output: 0.0363

input: Value lookup for apparent KD of MS2 coat protein; key = GCCAACUAAUGAGGAUAUGGCACCUUAUUGGUGCCAGAAGGCAUGUCAAUUGACAUGAGGAUCACCCAUGUAUUAUAGUUGGCA [Fiskers NG1ss - 33] (Eterna round: R96, puzzle: Same State NG 1)
output: 0.178

###

- System: MS2 coat protein
- ASSAY_SUMMARY: apparent KD of MS2 coat protein; designed switch direction (-1 OFF switch, 1 ON switch): -1; higher = weaker reporter binding
- RUN_PARAMETERS: input ligand: FMN 200 uM
For each entry below, report its apparent KD of MS2 coat protein value.
Entry rule: numbers only, all in nM.

input: Value lookup for apparent KD of MS2 coat protein; key = GAUCAUGCAGGAUAUACAUUAACCAUGAAAACAUGGUUGUCACAUGAGGAUCACCCAUGUAGAAGGGCAUGAUC [Omei Ex2 A6] (Eterna round: R97, puzzle: Exclusion 2)
output: 37.2

input: Value lookup for apparent KD of MS2 coat protein; key = GCGCUGCGAGGAUAUACAUGAGGAUCACCCAUGUGUCGGCAGCCAUGGUAGUACAAAUGUAGAAGGCGCGUAAA [EX3 #51] (Eterna round: R97, puzzle: Exclusion 3)
output: 202

input: Value lookup for apparent KD of MS2 coat protein; key = UUAUUAUAUGUAGGAUAUGCGUAUUAUUGUUAUGCAGAAGGACAUGAGGAUCACCCAUGUAUAUUAUUGUUAUAUAUUAUAUGU [Title] (Eterna round: R96, puzzle: Exclusion NG 1)
output: 110

input: Value lookup for apparent KD of MS2 coat protein; key = UUUUUUUAUGAAGGAUAUACUUAACAUGAGGAUCACCCAUGUGGUGUUGUGAGUGAGUGAGUUUAGUAGAAGGUCAAUUAUUUU [JMF's solution 23] (Eterna round: R96, puzzle: Exclusion NG 2)
output: 412

input: Value lookup for apparent KD of MS2 coat protein; key = AUAAUGUAAGGAUAUCAGUCGACUAGCCUCGGCUAGUCGACUGAGAAGGUACAUGAGGAUCACCCAUGUGAUUA [E4/10-A2] (Eterna round: R97, puzzle: Exclusion 4)
output: 762

###

- Test system: MS2 coat protein
- ASSAY_SUMMARY: apparent KD of MS2 coat protein, switch ON state; designed switch direction (-1 OFF switch, 1 ON switch): 1; higher = weaker reporter binding
- RUN_PARAMETERS: FMN input: 0 or 200 uM; Eterna round: R93 (includes R88 designs)
Please use condition met whenever apparent KD of MS2 coat protein is not below 30 nM, and condition not met whenever it is.

input: Does the reported apparent KD of MS2 coat protein for AAUAAACAUGAGGAUCACCCAUGUAGAAAUAUGGGAGGAUAUACAAAGACGAAAGUCAAAGUAGAAGGCCUAAUAU [Mat - Same State 1 - Mod - D154] fall at or above the 30 nM mark?
output: condition not met

input: Does the reported apparent KD of MS2 coat protein for UAAUAAUAAACCAAGGAUAUGGAGUUUCCAACAUGAGGAUCACCCAUGUUUUGCUUGUAAUCGAUCCAGAAGGUGGAGCCAAAUA [JR_SS002_Sub1006] fall at or above the 30 nM mark?
output: condition met

input: Does the reported apparent KD of MS2 coat protein for AGGAAACAUGAGGAUCACCCAUGUAAAAAUAUGGGAGGAUAUUGGAAUAAAAUAAAGAACCGAGAAGGCCUAAAAA [59%, Flamingo, 6] fall at or above the 30 nM mark?
output: condition met

input: Does the reported apparent KD of MS2 coat protein for AAGAAACAUGAGGAUCACCCAUGUAGAAAUAUGGGAGGAUAUACGAAGACGAAAGUCAAAGUAGAAGGCCUAAGAA [Mat - Same State 1 - Eli mod - D105] fall at or above the 30 nM mark?
output: condition met

input: Does the reported apparent KD of MS2 coat protein for AACAAUCUAUCUGAGGAUAUCAUGUCAAAGACAUGAGGAUCACCCAUGUGCAGGAAAACUGCAUAUGAGAAGGCAGAUAGAUUGA [SS2 :P - 599] fall at or above the 30 nM mark?
output: condition met

input: Does the reported apparent KD of MS2 coat protein for GGGCAAGAGAGAGAGGAUAUCCAAAGGAAAACAUGAGGAUCACCCAUGUAGAAGGUAGGAAAUUGGGAGAAGGCUCAAGAGAGAG [salish99-ss2-137] fall at or above the 30 nM mark?
output: condition not met

input: Does the reported apparent KD of MS2 coat protein for AGGAAACAUGAGGAUCACCCAUGUAAAGAUGGGCGAGGAUAUCGAAAGAAAAGAAAGAAACGAGAAGGCGCAAAAG [Flamingo] fall at or above the 30 nM mark?
output: condition met

input: Does the reported apparent KD of MS2 coat protein for ACAAGACAUGAGGAUCACCCAUGUAAAGAAAACGCAGGAUAUGCAAAAAAAUUCAUGGGUGCAGAAGGGCGAAAAA [Default title] fall at or above the 30 nM mark?
output: condition met

input: Does the reported apparent KD of MS2 coat protein for AAUAUAUUAAGUGAGGAUAUCGAGGAAAAAACAUGAGGAUCACCCAUGUGGGAAACAUGGUAGGGUGAGAAGGCACUUAAUAUAU [Samwise Clockwise 24 - Jieux - Same State 2] fall at or above the 30 nM mark?
output: condition met

###

For each entry below, report its apparent KD of K4 kissing-loop reporter value.
- Test system: K4 kissing-loop RNA reporter;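 further: bound reporter read as fluorescence of individual clusters on recovered sequencing chips by microscopy, with normalized cluster intensities fitted with a binding model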
- ASSAY_SUMMARY: apparent KD of K4 kissing-loop reporter; higher = weaker reporter binding
- RUN_PARAMETERS: Eterna round: R107; input ligand: FMN 200 uM
Entry rule: numbers only, all in nM.

input: Value lookup for apparent KD of K4 kissing-loop reporter; key = UUUCGUCUCUGAGGAUAUCAGAAUAGAGUGAUGUUCUAUCAAAGCCCAGUGAUGUUGGAUGCUAUCUGAGAAGGCAGUGGGCGAG [Same State FMN B GF 11]
output: 196

input: Value lookup for apparent KD of K4 kissing-loop reporter; key = GCCGUACGCAUGGAUACCAGCAAGUAUAUAUGCUAGUGAUGUUAGCGCUAUGCGAUGCGGUGCCCUUGGCAGCCAUGCGUACGGC
output: 129

input: Value lookup for apparent KD of K4 kissing-loop reporter; key = CCAUCGCUAUUCGAUACCAGUCAUAAAAUCUUUGGUUAAAUAAAGGAGUGAUGUUCCAAAGACCCUUGGCAGCGAAUAGUGAUGG [Theophylline B K4 6]
output: 670

input: Value lookup for apparent KD of K4 kissing-loop reporter; key = CCAUUCUGUUACGAUACCAGUCAAAUAUAUUUGAUCAAUACCCUCGCCGAGUGAUGUUCGGACCCUUGGCAGCGUCUGGGACAGG [ccdfmullin]
output: 537

input: Value lookup for apparent KD of K4 kissing-loop reporter; key = GGGUUUGCCGGAAGGAGCGCACUAUGGAGUGAUGUUCCAUGACCGCACAGCUUGCGGUCAGUGCAGGUAGGUCGCCGGUAACGUU [Enatbeve]
output: 237

input: Value lookup for apparent KD of K4 kissing-loop reporter; key = UGAUAGGACAGAAGGAGCGGUAGUGAUGUUGCCAAAAGAAUAAGGUGUCAAAAGACACCCUGCCAGGUAGGUCGCUGUCCUAUCU
output: 139

input: Value lookup for apparent KD of K4 kissing-loop reporter; key = ACCCUGGGUCCCGAAAGGGACCCAGGGAGUGAGGAUAUGUGGAAACACAGAAGGCACAGCACAGUGAUGUUGUGCGACGAAAGUC [#02 K4 FMN A Same State]
output: 566

input: Value lookup for apparent KD of K4 kissing-loop reporter; key = AUGGCACGACUUGCCCACAAUGUCUAUGCCCGAGGACCGGUACGGCCGCCACUCGGAUGCCGUGUCUUAUUAGUGAUGUUGAUAC [theeternabot_sameState_KL_Trp_A_4]
output: 355

input: Value lookup for apparent KD of K4 kissing-loop reporter; key = GUGACGCGGACGGCCGCCACUCCGGUGACCGCUCCGUGCCGCCCUGCGCGAGUGAUGUUCGCCAGGAGGACCGGGUCCGACUUUA [Soesente]
output: 107

input: Value lookup for apparent KD of K4 kissing-loop reporter; key = CGCAAGCAGCCAGUGAUGUUGGCCGCCUUGCGAGGACCGGUACGGCCGCCACUCGAAGGCGGCUACUGGUAAACCGCCUAACGGA [Onzaenla]
output: 93.3

input: Value lookup for apparent KD of K4 kissing-loop reporter; key = CGUACGGUUUCUUUCUUUCCGUACGAGUGCCGAGGACCGGUACGGCCGCCACUCGCUACAGCCUAGUGAUGUUAGGCAUUUCUUU
output: 104

input: Value lookup for apparent KD of K4 kissing-loop reporter; key = UGGACAUGACUCGAUAAGAGUCAAUGGGAUACCAGUGACGAAAGUCACCCUUGGCAGCUCAACUGCCAGUGAUGUUGGUAGUCCU [Astros-Elimod]
output: 205

input: Value lookup for apparent KD of K4 kissing-loop reporter; key = AGGUUUUGAUUAGGAUAUGCACUGAGGAGGAGAAUAUAGUGAUGUUAUAUAAGAGGAAGGAGAAGAGUAGAAGGGAUUGAGGUUU [SSFMNB.Q]
output: 156
